- study system: GCN2_T
- assay explanation: two-hybrid library CCmax;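 also: natural log of median RNA to DNA barcode read ratio; higher means stronger binding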

binder	interaction score
DKNAALKAEIAALKAKNAALKAEIAALEG [4H3705-AA]	-1.92
DKIAALKAKNAALEAKNAALKAEIAALEG [4H3001-AA]	-1.9
DEIAALEAENAALKAKNAALKAEIAALEG [4H249-AA]	-1.96
DENAALKAKIAALEAEIAALKAEIAALKG [4H1802-AA]	-1.36
DKNAALKAKNAALKAEIAALEAKIAALKG [4H4038-AA]	-1.9
DKIAALKAKNAALKAEIAALKAENAALKG [4H3020-AA]	-0.848
DKNAALKAKIAALKAEIAALEAEIAALEG [4H3905-AA]	-1.53
DKIAALEAEIAALKAEIAALKAENAALKG [4H2124-AA]	-1.07
DELAANEAELAAEEAKLAAAKAKAAALKG [AP4-AA]	-1.55
DKIAALEAKIAALEAKIAALEAKNAALEG [4H2343-AA]	-2.25
KELQAIEKQLAQLQWKAQARKKKLAQLKK [4H_APH]	-2.07
DEEAALEAKAAALKAELAANEAKLAAAKG [AP6-AA]	-1.54
DKIAALKAKIAALKAKNAALEAENAALEG [4H2931-AA]	-2.11
DEIAALKAEIAALEAENAALEAKNAALEG [4H535-AA]	-2.47
